Every entry's value here was drawn from PubChem BioAssay AID1040.

# Subject of test: Neuropeptide Y receptor type 1 (Homo sapiens)
# Protocol description: blockers of human neuropeptide Y Y1 receptor – cell-based, primary screen (AID 1040);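 also: 0% = DMSO wells given NPY plus isoproterenol and 100% = isoproterenol alone without NPY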
# Run conditions: HEK293-CNG Y1 cells, membrane potential fluorescence; at 3.6 µM; active compounds read high; NPY at EC95, then isoproterenol
The whole screen tested about 200,000 compounds, of which about 2,000 (1%) were called active. Shown is part of a subset that was picked to be rich in actives.
Outcome measure: inhibition (%)

# Molecule, Subject of test, Uom, Result value
records = [
    ("O=c1c2ccccc2c(-c2ccc(F)cc2)nn1-c1ccc(C(F)(F)F)cc1", "Neuropeptide Y receptor type 1 (Homo sapiens)", "%", 21.4),
    ("O=[N+]([O-])c1ccc(N2CCN(S(=O)(=O)c3ccccc3)CC2)cc1N1CCc2ccccc2C1", "Neuropeptide Y receptor type 1 (Homo sapiens)", "%", 4.34),
    ("CC1(C)OC(=O)C(=CNC(CO)C(=O)O)C(=O)O1 (stereo unspecified)", "Neuropeptide Y receptor type 1 (Homo sapiens)", "%", 0.88),
    ("Cc1ccc2nc(-c3ccc(NC(=O)c4cccnc4)cc3)oc2c1", "Neuropeptide Y receptor type 1 (Homo sapiens)", "%", -0.59),
    ("c1ccc2c(NC3C4CC5CC(C4)CC3C5)nc(N3CCOCC3)nc2c1 (stereo unspecified)", "Neuropeptide Y receptor type 1 (Homo sapiens)", "%", 31.8),
    ("Oc1ccc(-c2[nH]ncc2-c2nc3ccccc3s2)c(O)c1", "Neuropeptide Y receptor type 1 (Homo sapiens)", "%", 62.6),
    ("O=C(NCc1ccco1)c1nn2cccnc2c1Cl", "Neuropeptide Y receptor type 1 (Homo sapiens)", "%", 1.08),
    ("O=C(Cc1coc2ccc3ccccc3c12)NCc1cccs1", "Neuropeptide Y receptor type 1 (Homo sapiens)", "%", 1.1),
    ("Cc1cccc(OCC(=O)Nc2ccccc2F)c1", "Neuropeptide Y receptor type 1 (Homo sapiens)", "%", 5.47),
    ("Cc1cc(N2CCN(C)CC2)nc2ccc(NC(=S)N3CCOCC3)cc12", "Neuropeptide Y receptor type 1 (Homo sapiens)", "%", 6.76),
    ("CC1CCc2c(sc3nc4n(c(=O)c23)CCS4)C1 (stereo unspecified)", "Neuropeptide Y receptor type 1 (Homo sapiens)", "%", -3.28),
    ("Cc1ccc(CNC(=O)C2CCCN(S(C)(=O)=O)C2)cc1 (stereo unspecified)", "Neuropeptide Y receptor type 1 (Homo sapiens)", "%", 0.15),
    ("Cc1ccsc1C(C(=O)NC1CCCCC1)N(C(=O)Cc1cccs1)C1CC1 (stereo unspecified)", "Neuropeptide Y receptor type 1 (Homo sapiens)", "%", 4.38),
    ("COc1ccc(/C(=N\\O)c2nccc3cc(OC)c(OC)cc23)cc1OC", "Neuropeptide Y receptor type 1 (Homo sapiens)", "%", 5.85),
    ("CN1CCN(C(=O)/C(=C\\c2cccs2)NC(=O)c2cccs2)CC1", "Neuropeptide Y receptor type 1 (Homo sapiens)", "%", -0.85),
    ("CCc1ccc(OCC(=O)OCC(=O)c2c(N)n(C)c(=O)n(C)c2=O)cc1", "Neuropeptide Y receptor type 1 (Homo sapiens)", "%", -0.61),
    ("Cc1cc(C)nc(NS(=O)(=O)c2ccc(N/C=C\\C(=O)c3cccs3)cc2)n1", "Neuropeptide Y receptor type 1 (Homo sapiens)", "%", 1.24),
    ("O=c1[nH]c2ccccc2s1", "Neuropeptide Y receptor type 1 (Homo sapiens)", "%", 1.2),
    ("Cc1cc(O)ccc1-c1cnc2ccccc2n1", "Neuropeptide Y receptor type 1 (Homo sapiens)", "%", -0.67),
    ("COc1ccc(N2CCN(CCCNC(=O)C3CCN(S(=O)(=O)N4CCOCC4)CC3)CC2)cc1", "Neuropeptide Y receptor type 1 (Homo sapiens)", "%", -2.61),
    ("COC(=O)c1ccc(/C=N/OCC(=O)Nc2cc(F)ccc2F)cc1", "Neuropeptide Y receptor type 1 (Homo sapiens)", "%", 11.1),
    ("Cn1c(-c2ccccc2)c[n+]2c1CCCCC2", "Neuropeptide Y receptor type 1 (Homo sapiens)", "%", 6),
    ("O=C(CSc1nc2ccc(Nc3nc(N4CCOCC4)nc(N4CCOCC4)n3)cc2s1)NCc1ccco1", "Neuropeptide Y receptor type 1 (Homo sapiens)", "%", 2.78),
    ("O=C(/C=C/c1ccc(OCc2c(F)cccc2Cl)cc1)N1CCOCC1", "Neuropeptide Y receptor type 1 (Homo sapiens)", "%", 5.45),
    ("O=C(CN1CCCCC1)Nc1ccccc1Cl", "Neuropeptide Y receptor type 1 (Homo sapiens)", "%", -2.44),
    ("Cc1cc2nc(-c3ccc(NC(=O)c4cccnc4)cc3)oc2cc1C", "Neuropeptide Y receptor type 1 (Homo sapiens)", "%", 29.8),
    ("OCCC1CN(Cc2cnc(-c3ccccc3)s2)CCN1CCc1ccccc1 (stereo unspecified)", "Neuropeptide Y receptor type 1 (Homo sapiens)", "%", -0.62),
    ("O=C(CN1CCN(C(=O)c2ccco2)CC1)Nc1ccc2c(c1)OCO2", "Neuropeptide Y receptor type 1 (Homo sapiens)", "%", 0.97),
    ("O=C(COC(=O)c1cnc(Cl)c(Cl)c1)NCc1ccco1", "Neuropeptide Y receptor type 1 (Homo sapiens)", "%", 1.45),
    ("CC(NC(=O)COC(=O)c1ccc(Cl)cc1O)c1ccc(F)cc1 (stereo unspecified)", "Neuropeptide Y receptor type 1 (Homo sapiens)", "%", -0.49),
    ("Cc1cc(C)c(NC(=O)C[N+](C)(C)CC(O)COc2cccc3ccccc23)c(C)c1 (stereo unspecified)", "Neuropeptide Y receptor type 1 (Homo sapiens)", "%", -12.8),
    ("CS(=O)(=O)N1CCCC(C(=O)N2CCOCC2)C1 (stereo unspecified)", "Neuropeptide Y receptor type 1 (Homo sapiens)", "%", 94.5),
    ("CC1CC1C(=O)OCC(=O)c1c(N)n(C)c(=O)n(C)c1=O (stereo unspecified)", "Neuropeptide Y receptor type 1 (Homo sapiens)", "%", 0.59),
    ("CCCS(=O)(=O)N1CCCC(C(=O)N2CCN(c3ccccc3)CC2)C1 (stereo unspecified)", "Neuropeptide Y receptor type 1 (Homo sapiens)", "%", 0.57),
    ("c1ccc(Nc2nc(N3CCOCC3)c3ccccc3n2)cc1", "Neuropeptide Y receptor type 1 (Homo sapiens)", "%", 3.28),
    ("Cc1cccc2cc(CN(Cc3cccs3)C(=S)NCc3ccco3)c(=O)[nH]c12", "Neuropeptide Y receptor type 1 (Homo sapiens)", "%", -4.05),
    ("COC(=O)C(C(=O)Nc1cccc(Cl)c1C)C1CCCC1 (stereo unspecified)", "Neuropeptide Y receptor type 1 (Homo sapiens)", "%", 5.62),
    ("Cc1ccc(C(=O)N2CCCC(c3ccccc3)=N2)cc1", "Neuropeptide Y receptor type 1 (Homo sapiens)", "%", 0.71),
    ("O=C(CN1CCN(c2ncc(C(F)(F)F)cc2Cl)CC1)Nc1ccc2c(c1)OCO2", "Neuropeptide Y receptor type 1 (Homo sapiens)", "%", 23.8),
    ("CCOC(=O)N1CCN(C(=O)c2cnc3n(c2=O)CCS3)CC1", "Neuropeptide Y receptor type 1 (Homo sapiens)", "%", -1.03),
    ("CCOc1cccc(OCCCOc2cccc3cccnc23)c1", "Neuropeptide Y receptor type 1 (Homo sapiens)", "%", 1.99),
]

###

# Subject of test: Neuropeptide Y receptor type 1 (Homo sapiens)
# Protocol description: blockers of human neuropeptide Y Y1 receptor – cell-based, primary screen (AID 1040);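 also: 0% = DMSO wells given NPY plus isoproterenol and 100% = isoproterenol alone without NPY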
# Run conditions: HEK293-CNG Y1 cells, membrane potential fluorescence; at 3.6 µM; NPY at EC95, then isoproterenol
Hit rate of the full screen: of about 200,000 compounds, about 2,000 (1%) were called active.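 How the source made its calls: active means inhibition above the campaign mean inhibition of all tested compounds plus 3 SD (cut at about 20% in these data); inactive means the rest.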 The entries come from a sample that favours actives as a whole.
Outcomes: 1 (yes) = active, 0 (no) = inactive

# Structure notation, Category label
measured = [
    ("CCCN(CC(=O)Nc1ccc(C(N)=O)cc1)CC(=O)Nc1ccccc1C", "0 (no)"),
    ("COc1ccc(-c2cc(C(=O)n3cnc4ccccc43)c3ccccc3n2)cc1", "1 (yes)"),
    ("c1ccc2[nH]c(-c3nc4ccccc4[nH]3)nc2c1", "0 (no)"),
    ("Cc1nn(Cc2ccccc2)c(C)c1C(=O)NCCN1C(=O)S/C(=C\\c2ccc(F)cc2)C1=O", "0 (no)"),
    ("COc1ccc(NC(=O)/C(C#N)=C\\c2cc(OC)c(OCc3ccc(C(=O)O)cc3)cc2Br)cc1", "0 (no)"),
    ("Cc1ccc(Cl)cc1N1CCN(C(=O)c2cccc3c(=O)c(C)c(-c4ccccc4)oc23)CC1", "0 (no)"),
    ("CCCCOC(=O)Nc1sc2nc(C)cc(C)c2c1-n1cccc1", "0 (no)"),
]

###

# Subject of test: Neuropeptide Y receptor type 1 (Homo sapiens) (UniProt P25929)
# Sequence (P25929 whole entry, looked up): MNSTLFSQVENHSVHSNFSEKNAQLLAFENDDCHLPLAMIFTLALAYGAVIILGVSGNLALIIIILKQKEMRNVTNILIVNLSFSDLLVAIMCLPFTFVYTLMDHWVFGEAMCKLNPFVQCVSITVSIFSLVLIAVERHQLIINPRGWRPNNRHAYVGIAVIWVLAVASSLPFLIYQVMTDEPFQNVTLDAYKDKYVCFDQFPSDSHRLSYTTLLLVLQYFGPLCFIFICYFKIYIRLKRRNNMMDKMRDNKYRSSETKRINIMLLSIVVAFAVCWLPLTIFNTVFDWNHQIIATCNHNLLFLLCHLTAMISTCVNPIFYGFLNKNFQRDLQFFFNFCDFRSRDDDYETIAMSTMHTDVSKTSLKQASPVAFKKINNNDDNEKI
# Protocol description: blockers of human neuropeptide Y Y1 receptor – cell-based, primary screen (AID 1040);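 also: 0% = DMSO wells given NPY plus isoproterenol and 100% = isoproterenol alone without NPY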
# Run conditions: HEK293-CNG Y1 cells, membrane potential fluorescence; at 3.6 µM; active compounds read high; NPY at EC95, then isoproterenol
About 2,000 (1%) of roughly 200,000 compounds were called active. The sample as a whole holds a higher share of actives than the screen did.

# Compound, inhibition, %
data = [
    ("Cc1cccc(C)c1OCC(O)CN1CCCCC1 (stereo not given)", 6.39),
    ("Cc1ccc(O)c(CCc2ccccc2)n1", 1.07),
    ("Cc1ccc(S(=O)(=O)CC(=O)Nc2c(C)n(C)n(-c3ccccc3)c2=O)cc1", 1),
    ("O=C(c1cc(-c2ccccc2O)on1)N1CCCC1", -3.05),
    ("O=C1NC(=Nc2ccc(Cl)cc2)SC1Cc1cccc(Cl)c1Cl (stereo not given)", -1.29),
]
